Task for the reader: assign each of the following molecules its reported Biodistribution Blood.
- protocolText: Biodistribution studies incl. blocking experiments
- Assay type: in vivo
- assayContext: healthy BALB/c mice, 60 min p.i.

Sample O=C(CCP(=O)([O-])CN1CCN(CP(=O)([O-])CCC(=O)NCc2cn(CCOCCOCCO[C@@H]3O[C@H](CO)[C@@H](O)[C@H](O)[C@H]3O)nn2)CCN(CP(=O)([O-])CCC(=O)NCc2cn(CCOCCOCCO[C@@H]3O[C@H](CO)[C@@H](O)[C@H](O)[C@H]3O)nn2)CC1)NCc1cn(CCOCCOCCO[C@@H]2O[C@H](CO)[C@@H](O)[C@H](O)[C@H]2O)nn1.[68Ga+3] [[^68Ga]Ga-TRAP-Gluco, reference compound] — what was its Biodistribution Blood?
0.16 ± 0.06 % ID/g

Sample O=C(CCP(=O)([O-])CN1CCN(CP(=O)([O-])CCC(=O)NCc2cn([C@@H]3O[C@H](CO)[C@H](O)[C@H](O)[C@H]3O)nn2)CCN(CP(=O)([O-])CCC(=O)NCc2cn([C@@H]3O[C@H](CO)[C@H](O)[C@H](O)[C@H]3O)nn2)CC1)NCc1cn([C@@H]2O[C@H](CO)[C@H](O)[C@H](O)[C@H]2O)nn1.[68Ga+3] [[^68Ga]Ga-Galacto-TRAP] — what was its Biodistribution Blood?
0.11 ± 0.03 % ID/g

Sample O=C(CCP(=O)([O-])CN1CCN(CP(=O)([O-])CCC(=O)NCc2cn(CCOCCOCCO[C@@H]3O[C@H](CO)[C@H](O)[C@H](O)[C@H]3O)nn2)CCN(CP(=O)([O-])CCC(=O)NCc2cn(CCOCCOCCO[C@@H]3O[C@H](CO)[C@H](O)[C@H](O)[C@H]3O)nn2)CC1)NCc1cn(CCOCCOCCO[C@@H]2O[C@H](CO)[C@H](O)[C@H](O)[C@H]2O)nn1.[68Ga+3] [[^68Ga]Ga-TRAP-Galactan] — what was its Biodistribution Blood?
0.3±0.09 % ID/g

Sample CC(=O)N[C@H]1[C@H](OCCOCCOCCn2cc(CNC(=O)CCP(=O)([O-])CN3CCN(CP(=O)([O-])CCC(=O)NCc4cn(CCOCCOCCO[C@@H]5O[C@H](CO)[C@H](O)[C@H](O)[C@H]5NC(C)=O)nn4)CCN(CP(=O)([O-])CCC(=O)NCc4cn(CCOCCOCCO[C@@H]5O[C@H](CO)[C@H](O)[C@H](O)[C@H]5NC(C)=O)nn4)CC3)nn2)O[C@H](CO)[C@H](O)[C@@H]1O.[68Ga+3] [[^68Ga]Ga-TRAP-GalNAc] — what was its Biodistribution Blood?
0.23 ± 0.02 % ID/g

====

- protocolText: Biodistribution studies incl. blocking experiments
- Assay type: in vivo
- assayContext: healthy BALB/c mice, 30 min p.i.
Task for the reader: assign each of the following molecules its reported Biodistribution Muscle.
Provide the reading as a plain figure in % ID/g.

Sample O=C(CCP(=O)([O-])CN1CCN(CP(=O)([O-])CCC(=O)NCc2cn(CCOCCOCCO[C@@H]3O[C@H](CO)[C@H](O)[C@H](O)[C@H]3O)nn2)CCN(CP(=O)([O-])CCC(=O)NCc2cn(CCOCCOCCO[C@@H]3O[C@H](CO)[C@H](O)[C@H](O)[C@H]3O)nn2)CC1)NCc1cn(CCOCCOCCO[C@@H]2O[C@H](CO)[C@H](O)[C@H](O)[C@H]2O)nn1.[68Ga+3] [[^68Ga]Ga-TRAP-Galactan] — what was its Biodistribution Muscle?
0.37

Sample O=C(O)CN1CCN(CC(=O)O)CCN([C@H](CCC(=O)NCCCC(=O)NC(COCc2cn(CCOCCOCCO[C@@H]3O[C@H](CO)[C@H](O)[C@H](O)[C@H]3O)nn2)(COCc2cn(CCOCCOCCO[C@@H]3O[C@H](CO)[C@H](O)[C@H](O)[C@H]3O)nn2)COCc2cn(CCOCCOCCO[C@@H]3O[C@H](CO)[C@H](O)[C@H](O)[C@H]3O)nn2)C(=O)O)CC1 [[^68Ga]Ga-NODAGA-TriGalactan, metal not drawn] — what was its Biodistribution Muscle?
0.23

Sample O=C(CCP(=O)([O-])CN1CCN(CP(=O)([O-])CCC(=O)NCc2cn(CCOCCOCCO[C@@H]3O[C@H](CO)[C@@H](O)[C@H](O)[C@H]3O)nn2)CCN(CP(=O)([O-])CCC(=O)NCc2cn(CCOCCOCCO[C@@H]3O[C@H](CO)[C@@H](O)[C@H](O)[C@H]3O)nn2)CC1)NCc1cn(CCOCCOCCO[C@@H]2O[C@H](CO)[C@@H](O)[C@H](O)[C@H]2O)nn1.[68Ga+3] [[^68Ga]Ga-TRAP-Gluco, reference compound] — what was its Biodistribution Muscle?
0.35

Sample CC(=O)N[C@H]1[C@H](OCCOCCOCCn2cc(CNC(=O)CCP(=O)([O-])CN3CCN(CP(=O)([O-])CCC(=O)NCc4cn(CCOCCOCCO[C@@H]5O[C@H](CO)[C@H](O)[C@H](O)[C@H]5NC(C)=O)nn4)CCN(CP(=O)([O-])CCC(=O)NCc4cn(CCOCCOCCO[C@@H]5O[C@H](CO)[C@H](O)[C@H](O)[C@H]5NC(C)=O)nn4)CC3)nn2)O[C@H](CO)[C@H](O)[C@@H]1O.[68Ga+3] [[^68Ga]Ga-TRAP-GalNAc] — what was its Biodistribution Muscle?
0.74
